Measured values drawn from patent US20240327505A1 for this set.

Molecular target: SARS-CoV-2 Spike (S) trimer (SARS-CoV-2), P0DTC2
Experiment: ELISA on coated S trimer, 1:50
Conditions: remark: other sources report otherwise
quantity-kind: OD 450 nm
In your response, put the unit directly after the numeric value.

For the 3 binders below, give their OD 450 nm values.
1. AB-009244 (antibody) chain 1: EVQLVESGGGLVQPGGSLRLSCAASGFAFNTYGINWVRQAPGKGLEWVSFISSRSTTIHYADSVRGRFTISRDNAKNSLYLQMNNLRDEDTAVYYCARDLLIWFGETGAFDIWGQGTMVTVSS chain 2: EVVMTQSPATLSVSSGERVTLSCRASQSVSNNLAWYQQKPGQAPRLLIYGASTRATGFPARFSGSGSGTEFTLTISSLQSEDFAVYYCQQYNIWPPGTFGQGTKLEIK
2. AB-009237 (antibody) chain 1: QVQLLQSGAEVKKPGASVSVSCKASGFTFTSYYFHWVRQAPGQGLEWMGIVSPAGGSTNYAQKFQGRVTMTRDTSTSTVHMELRNVRYDDTAVFYCARSVYCSSPSCPHGMDVWGPGTMVTVSS chain 2: DIQVTQSPSTLSASVGDRVTITCRASQSILTYLAWYQQKPGKAPNLLIYKASNLQSGVPSRFSGSGSGTEFTLTISSLQPDDFATYHCQQYKSYPFSFGQGTKLAIK
3. AB-009108 (antibody) chain 1: QVQLQESGPGLVKPSETLALTCTVSGDSIINNNFYWGWLRQPPGQGLEWIGSLFHTGSAYYNSSLKSRVRSSVDTARNQISLRLSSVTAADTAVYYCARVNIVSVPAPPGAIEGWFDPWGQGTRVTVSP chain 2: SYELTQPPSVSVSLGQTARISCSGDALPTKYVHWYQQKAGQAPVVVIFRDTERPSEIPERFSGSSSGTTVTLTISGVQAEDEADYYCQSVDGSGFYVFGSGTKVTVL

Ans:
1. 0.239 OD
2. 0.228 OD
3. 0.28 OD
